target: TPRKB;PRPK;OSGEP;LAGE3 (Homo sapiens;Homo sapiens;Homo …, UniProt Q9Y3C4;Q96S44;Q9NPF4;Q14657 1-175;1-253;1-335;1-143, |||); assay: fluorescence polarization; 20 mM HEPES pH 7.5, 100 mM NaCl, 2 mM DTT; filter binding 50 nM 32P-tRNA, 1 h, room temperature; FP 50 nM 647-CCA; NMR 25 C with 10% D2O; conditions: protein: recombinant;recombinant;recombinant;recombinant; tags: GST removed by TEV;GST-His6 removed by TEV;;His; copies: 1;1;1;1; label: 5' Alexa-647; single strand
readout.type: Kd (µM)
Your answer is read as µM, so omit the unit and give the number.

Exercise: Which Kd value is on record for CCGCCA (ssRNA) [647-CCA] ?
Solution: 4.3
